B1: Peroxisomal bifunctional enzyme (Homo sapiens), Q08426 (parent)
chain: MAEYTRLHNALALIRLRNPPVNAISTTLLRDIKEGLQKAVIDHTIKAIVICGAEGKFSAGADIRGFSAPRTFGLTLGHVVDEIQRNEKPVVAAIQGMAFGGGLELALGCHYRIAHAEAQVGLPEVTLGLLPGARGTQLLPRLTGVPAALDLITSGRRILADEALKLGILDKVVNSDPVEEAIRFAQRVSDQPLESRRLCNKPIQSLPNMDSIFSEALLKMRRQHPGCLAQEACVRAVQAAVQYPYEVGIKKEEELFLYLLQSGQARALQYAFFAERKANKWSTPSGASWKTASARPVSSVGVVGLGTMGRGIVISFARARIPVIAVDSDKNQLATANKMITSVLEKEASKMQQSGHPWSGPKPRLTSSVKELGGVDLVIEAVFEEMSLKKQVFAELSAVCKPEAFLCTNTSALDVDEIASSTDRPHLVIGTHFFSPAHVMKLLEVIPSQYSSPTTIATVMNLSKKIKKIGVVVGNCFGFVGNRMLNPYYNQAYFLLEEGSKPEEVDQVLEEFGFKMGPFRVSDLAGLDVGWKSRKGQGLTGPTLLPGTPARKRGNRRYCPIPDVLCELGRFGQKTGKGWYQYDKPLGRIHKPDPWLSKFLSRYRKTHHIEPRTISQDEILERCLYSLINEAFRILGEGIAASPEHIDVVYLHGYGWPRHKGGPMFYASTVGLPTVLEKLQKYYRQNPDIPQLEPSDYLKKLASQGNPPLKEWQSLAGSPSSKL

Variants of: B1
testParameters: with tpp2_human TPP2, P29144

- change: "R556G"
  effect of a mutation on the interaction: "with no effect"
- change: "L715S"
  effect of a mutation on the interaction: "with no effect"
- change: "S703F"
  effect of a mutation on the interaction: "with no effect"
